# maps each entry to its GI50
tested on: T47D; assay: NCI tumour cell line growth inhibition, 48 h
The source made the active and inactive calls. Cut-off read from the data, not from the text of the source: active = GI50 up to about 1.1 µM and inactive = higher.

Worked set:
COc1ccc(OC)c(C(Cc2ccnc3ccccc23)Cc2ccnc3ccccc23)c1
6.25 µM (inactive)
CCOC(=O)N/N=C/C1=NN(C(=O)OCC)[S+]([O-])C1C (stereo not given)
> 100 µM (inactive)
O=C1Nc2ccccc2C(=O)/C1=C/NC(=S)NCc1ccccc1
> 100 µM (inactive)

Let's switch to this molecule now.
Lab note: record GI50 of O=C(NCCO)c1ccc(Cl)cc1 tested on T47D.
> 100 µM (inactive)

###

system: Malme-3M; assay: NCI tumour cell line growth inhibition, 48 h
Calls of active or inactive are those of the source. No stated cut-off is given here; in the data, active = GI50 up to about 1.1 µM and inactive = higher.
Parameter: GI50. Scope: all listed entries.

Example cases with answers are listed next.
CC(C)(Oc1ccc(Cl)cc1)C(=O)N(C(=O)N1CCN(c2ccccc2)CC1)c1ccccc1
> 100 µM (inactive)
COc1c(C(=O)/C(=N/Nc2ccc(C(=O)O)cc2)C(C)=O)c(O)cc2occc12
90.8 µM (inactive)
C=C1C(=O)O[C@@H]2C[C@@H](C)[C@@H]3C=CC(=O)[C@@]3(C)[C@@H](O)[C@H]12 [HELENALIN]
1.69 µM (inactive)
c1ccc(/N=C2\S/C(=N\C3CCCCC3)N(C3CCCCC3)\C2=N/c2ccccc2)cc1
> 100 µM (inactive)
COc1cccc2c1C(=O)c1c(O)c3c(c(O)c1C2=O)C[C@@](O)(C(C)O)C[C@@H]3OC1CC(N)C(O)C(C)O1 (some centres undefined)
0.491 µM (active)
O=C(CCc1ccccc1)On1c(-c2ccccc2)nc2ccccc2c1=S
3.61 µM (inactive)

Provide measured GI50 value, entry: CC(C)=CCCC(C)C1=C(O)C(=O)C(C)=CC1=O (centres undefined)
9.29 µM (inactive)

Indicate its recorded GI50; the compound in question is COc1ccccc1C1SCC(=O)N1c1ccc(-n2c(-c3ccccc3)nc3ccccc3c2=O)cc1 (centres undefined)
69.2 µM (inactive)

Check the records and state GI50 for O=C1CSC(c2c(O)ccc3ccccc23)N1n1c(S)nnc(/C=C/c2c(O)ccc3ccccc23)c1=O (centres undefined)
2.22 µM (inactive)

Return GI50 for the following compound: C=CCn1c(N)c(C#N)c(C#N)c1-c1ccccc1
> 100 µM (inactive)

Given the compound COC(=O)C(Cc1ccc(Oc2cc(CC(NC(=O)c3ccccc3)C(=O)OC)ccc2OC)cc1)NC(=O)c1ccccc1 (centres undefined) , write its reported GI50.
15.2 µM (inactive)
